Data provenance is the supplement of paper PMC8285479.

Test system: NCI-H1944;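 further: CTB read-out in 384-well plates, triplicate wells, NPI normalised per plate against 1 µM phenylarsine oxide (0) and 0.1% DMSO (1) controls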
Experiment: normalised cell viability (NPI; 0 = phenylarsine oxide control, 1 = DMSO control) (fraction of DMSO control); NCI-H1944 is a non-small cell lung cancer line; higher = more viable cells (less compound toxicity)
Conditions: glucocorticoid arm: vehicle; compound 1 µM; 6 days
Whole data set: some 1,900 compounds, median “normalised cell viability (NPI; 0 = phenylarsine oxide control, 1 = DMSO control)” near 1, cut for the lowest 2% near 0.039. This excerpt belongs to a sample that is enriched for the lowest values.
MEASURE: normalised cell viability
Give bare numbers.

In [3]: df
Out[3]:
                                   compound                    measure  test_result
0  Cn1c(=O)c(F)c(Nc2ccc(I)cc2F)c2c(=O)n(C[C@@H](O)CO)cnc21  normalised cell viability        0.329
1     Cc1cc(C)c(/C=C2\C(=O)Nc3ccccc32)[nH]1  normalised cell viability         1.03
2  CNc1ncnc2c1ncn2[C@H]1C[C@H](OP(=O)(O)O)[C@@H](COP(=O)(O)O)O1  normalised cell viability        0.996
3  Cc1cc2c(cc1Cl)N(C(=O)Nc1cccc3ncccc13)CC2  normalised cell viability        0.979
4  CC[C@@H]1C(=O)N(C)c2cnc(Nc3ccc(C(=O)NC4CCN(C)CC4)cc3OC)nc2N1C1CCCC1  normalised cell viability       0.0889
5                          CN(C)CCCCSC(=N)N  normalised cell viability        0.995
6  CN(C(Cc1ccc(OS(=O)(=O)c2cccc3cnccc23)cc1)C(=O)N1CCN(c2ccccc2)CC1)S(=O)(=O)c1cccc2cnccc12 (centres undefined)  normalised cell viability         1.01
7        O=C(OCCN1CCOCC1)C1(c2ccccc2)CCCCC1  normalised cell viability         1.02

Please supply normalised cell viability for each of the following items, keeping them in order.
1. Oc1ccc2ccccc2c1SSc1c(O)ccc2ccccc12
2. CCc1cccc(N(C)C(=N)Nc2cccc3ccccc23)c1
3. NCCCCCC(=O)O
4. COc1cc2c(cc1C(F)(F)F)N(C(=O)Nc1cc(F)cc(-c3cccnc3)c1)CC2
5. Cc1cc(C(=O)NOCCO)c(Nc2ccc(I)cc2F)n(C)c1=O
6. N[C@@H](CCCC(=O)O)C(=O)O

1: 1.01; 2: 1; 3: 0.99; 4: 0.974; 5: 0.286; 6: 0.979
